Recorded measurements of TGI, one per entry
System: MALME-3M melanoma
Assay: NCI tumour cell line growth inhibition, 48 h
quantity: TGI

[
  {
    "compound": "COc1ccc(C2=C(N)c3c(Cl)cccc3C2=O)cc1",
    "measured.value": "> 100 µM"
  },
  {
    "compound": "CNC(=O)NCCN1CC2CCC(CC2)C1",
    "measured.value": "> 10 µM"
  },
  {
    "compound": "CCOC(=O)Cc1csc(Nc2ccc(OCC)cc2)n1",
    "measured.value": "> 100 µM"
  },
  {
    "compound": "O=C1NC(=O)C(C(=O)C(=O)Nc2ccc(Cl)cc2Cl)C(=O)N1",
    "measured.value": "> 100 µM"
  },
  {
    "compound": "C/C(CC(=O)Nc1cc(C)ccc1C)=N/N=C(N)N",
    "measured.value": "> 100 µM"
  },
  {
    "compound": "O=C(O)C(C(=O)O)P(=S)(S)c1ccccc1 (stereo unspecified)",
    "measured.value": "> 100 µM"
  }
]

----------
Test system: MDA-MB-435
Test: NCI tumour cell line growth inhibition, 48 h
quantity: TGI (µM)

[
  {
    "compound": "O[C@H]1[C@H](O)[C@@H](O)[C@@]2(O)CC[C@@H]1N2",
    "target.under.test": "MDA-MB-435",
    "quantity": "TGI",
    "reading.unit": "µM",
    "comparator": ">",
    "measured.value": 100
  },
  {
    "compound": "O=C(CCCN1CCC(Nc2ccccc2)(c2nnnn2C2CCCCC2)CC1)c1ccc(F)cc1",
    "target.under.test": "MDA-MB-435",
    "quantity": "TGI",
    "reading.unit": "µM",
    "comparator": "=",
    "measured.value": 19.4
  },
  {
    "compound": "c1ccc(C(NC2=NCCO2)c2ccccc2)cc1",
    "target.under.test": "MDA-MB-435",
    "quantity": "TGI",
    "reading.unit": "µM",
    "comparator": ">",
    "measured.value": 10
  },
  {
    "compound": "COC(=O)c1ccccc1NC(=NC1CCCCCC1)NS(=O)(=O)c1ccc(C)cc1",
    "target.under.test": "MDA-MB-435",
    "quantity": "TGI",
    "reading.unit": "µM",
    "comparator": ">",
    "measured.value": 100
  },
  {
    "compound": "O=C(NC(=O)c1ccccc1[N+](=O)[O-])Nc1ccc(Oc2ncc(Cl)cn2)c([N+](=O)[O-])c1",
    "target.under.test": "MDA-MB-435",
    "quantity": "TGI",
    "reading.unit": "µM",
    "comparator": "=",
    "measured.value": 0.197
  },
  {
    "compound": "COc1ccc2c(O)c(/C=C3\\N=Nc4ccccc43)oc2c1C[C@@H]1CCNC[C@H]1F",
    "target.under.test": "MDA-MB-435",
    "quantity": "TGI",
    "reading.unit": "µM",
    "comparator": "=",
    "measured.value": 24.4
  },
  {
    "compound": "NC(N)=NC(N)=Nc1cnccn1",
    "target.under.test": "MDA-MB-435",
    "quantity": "TGI",
    "reading.unit": "µM",
    "comparator": ">",
    "measured.value": 100
  },
  {
    "compound": "COc1cc2cc(C(=O)Nc3cc4n(n3)-c3ccccc3C4)[nH]c2c(OC)c1OC",
    "target.under.test": "MDA-MB-435",
    "quantity": "TGI",
    "reading.unit": "µM",
    "comparator": "=",
    "measured.value": 5.28
  },
  {
    "compound": "CC1=NNC(=O)C1C1CC(c2c[nH]c3ccccc23)=NN(C(N)=O)C1=O (stereo not given)",
    "target.under.test": "MDA-MB-435",
    "quantity": "TGI",
    "reading.unit": "µM",
    "comparator": ">",
    "measured.value": 100
  },
  {
    "compound": "COc1ccc2c(c1)oc(=O)c1cc(OC)ccc12",
    "target.under.test": "MDA-MB-435",
    "quantity": "TGI",
    "reading.unit": "µM",
    "comparator": ">",
    "measured.value": 100
  }
]
